- Test system: HCV genotype 1b replicon
- test_method_notes: HCV replicon assay, cell ELISA with antibody to replicon-encoded NS3/4A (genotype 1b replicon)
- Assay type: cell-based, hepatitis C virus
- condition_notes: Hepatitis C virus, 96 h, read-out: 1b IC50(nM), HCV genotype 1b replicon; 96 hours incubation; NS3/4A cell ELISA

# compound, IC50 (nM)
records = [
    ("CNC(=O)c1cc(-c2nc3c(F)cccc3o2)cc(-c2cc3c(C(=O)NC)c(-c4ccc(F)cc4)oc3cc2N(C)S(C)(=O)=O)c1", 3.65),
    ("CNC(=O)c1c(-c2ccc(F)cc2)oc2cc(N(CC(O)CCF)S(C)(=O)=O)c(-c3ccc(OC)c(-c4nc5c(F)cccc5o4)c3)cc12 (stereo not drawn)", 11.8),
    ("CNC(=O)c1c(-c2ccc(F)cc2)oc2cc(N(CCCP(=O)(O)O)S(C)(=O)=O)c(-c3ccc(OC)c(-c4nc5c(F)cccc5o4)c3)cc12", 19.5),
]

Hey, just so you know, these numbers are from patent US20120328569A1.
